Give measured Formed peptide for each item. Keep answers brief.
- Test system: peptide-forming enzyme (Mono S fraction enzyme)
- TEST_DETAILS: Enzyme substrate specificity (1)-(10), (13), (14): peptide production
- Format: biochemical, Empedobacter brevis
- SETTINGS: L-amino acid methyl ester hydrochloride 100 mM, L-amino acid 150 mM, pH 9.0, 25° C., 3 hours
- Method: Ester specificity was examined in the case of using L-amino acid ester for the carboxy component. 2 μl of the same enzyme fraction as used in Example 5 was added to 100 μl of 100 mM borate buffer (pH 9.0) containing the carboxy components indicated in Table 4 at 100 mM, 200 mM L-glutamine and 10 mM EDTA, and allowed to react at 25° C. for 2 hours. HCl represents hydrochloride in Table 4. […]
Where a SMILES comes first, the peptide text is derived from it.

Problem: Data request, read-out Formed peptide, for NCC(=O)N[C@@H](CS)C(=O)O [Gly-L-CySH] (H-Gly-Cys-OH)
Result: 45.6 mM

Problem: Data request, read-out Formed peptide, for CC(C)[C@H](NC(=O)[C@@H](N)[C@@H](C)O)C(=O)O [L-Thr-L-Val] (H-Thr-Val-OH)
Result: 0.7 mM

Problem: Data request, read-out Formed peptide, for NCCCC[C@H](NC(=O)CN)C(=O)O [Gly-L-Lys] (H-Gly-Lys-OH)
Result: 9.8 mM

Problem: Data request, read-out Formed peptide, for CC[C@H](C)[C@H](N)C(=O)N[C@@H](CO)C(=O)O [L-Ile-L-Ser] (H-Ile-Ser-OH)
Result: 17.2 mM
